- Protocol notes: Cytotoxicity against adriamycin-resistant human K562/A02 cells at 10 uM after 48 hrs by MTT assay
- Type: functional
- Settings: K562/A02, 48 h
Overview of recorded inhibition at 10 µM for various compounds
Please give a number only; it is taken to be in %.

Reference set, count: 4
• COc1ccc2c(c1)CCc1ccc(OC)c(c1)Oc1ccc(cc1)-c1nc(N)sc1-c1cccc(c1)O2 = 26.8
• NNc1nc2c(s1)-c1cccc(c1)Oc1ccc(O)cc1CCc1ccc(O)c(c1)Oc1ccc-2cc1 = 13.7
• Nc1nc2c(s1)-c1cccc(c1)Oc1ccc(O)cc1CCc1ccc(O)c(c1)Oc1ccc-2cc1 = 10.1
• COc1ccc2c(c1)CCc1ccc(OC)c(c1)Oc1ccc(cc1)-c1nc(NN)sc1-c1cccc(c1)O2 = 18.8

Data point: COc1ccc2c(c1)CCc1ccc(OC)c(c1)Oc1ccc(cc1)C(O)C(Br)c1cccc(c1)O2 (stereo not given) ; inhibition at 10 µM = 11.9

====

# key: entry, value: inhibition at 10 µM
- Tested on: KB
- Protocol notes: Cytotoxicity against human KB cells at 10 uM after 48 hrs by MTT assay
- Type: functional
// note: answer is a bare numeric in %

Worked cases, answers included:
- COc1ccc2c(c1)CCc1ccc(OC)c(c1)Oc1ccc(cc1)-c1nc(NN)sc1-c1cccc(c1)O2: 0
- NNc1nc2c(s1)-c1cccc(c1)Oc1ccc(O)cc1CCc1ccc(O)c(c1)Oc1ccc-2cc1: 51.1
- Nc1nc2c(s1)-c1cccc(c1)Oc1ccc(O)cc1CCc1ccc(O)c(c1)Oc1ccc-2cc1: 0
- COc1ccc2c(c1)CCc1ccc(OC)c(c1)Oc1ccc(cc1)-c1nc(N)sc1-c1cccc(c1)O2: 0

Next, consider the following molecule.
Sure, the documented inhibition at 10 µM for COc1ccc2c(c1)CCc1ccc(OC)c(c1)Oc1ccc(cc1)C(O)C(Br)c1cccc(c1)O2 (stereo not given) is 2.82
